The entries below are paired with their reported growth.
System: RXF 393 renal
TEST: NCI-60 one-dose screen, 48 h (100 = growth as untreated, 0 = no growth, -100 = all killed)
CONDITION LABEL: 10 µM unless noted
Compounds without any hit were thinned out: in the full panel of roughly 83,000, 20% have a hit. The source made the active and inactive calls. Rule for the calls: active = growth percent below 10; inactive = the rest.
EXPERIMENTAL ENDPOINT: growth

> print(dat)
                                    molecule  target.under.test  experimental.result
 1  C/C(=C\c1ccccc1)C(O)C(=O)c1nc2ccc([N+](=O)[O-])cc2[nH]c1=O (centres undefined)      RXF 393 renal      109% (inactive)
 2                  Cc1cc(Cl)nc(Nc2ccccc2)n1      RXF 393 renal     96.3% (inactive)
 3                  CCOc1ccc(/C=C\C(=O)O)cc1      RXF 393 renal      138% (inactive)
 4                           CN(C=O)c1ccccc1      RXF 393 renal      105% (inactive)
 5  O=C1C=CC(n2cc(F)c(=O)[nH]c2=O)O1 (centres undefined)      RXF 393 renal       99% (inactive)
 6  O=C1C2=C(Nc3cc(Cl)ccc3N2)OC1c1c[nH]c2ccc(COc3ccccc3)cc12 (centres undefined)      RXF 393 renal     43.9% (inactive)
 7                            Cc1cccc(Cl)c1N      RXF 393 renal      126% (inactive)
 8                CC(C)(C)OC(=O)CC1(O)CCCCC1      RXF 393 renal      108% (inactive)
 9                            CCN(C)c1ccccc1      RXF 393 renal      106% (inactive)
10  CCN(CC)C(CC(=O)c1ccccc1)C(=O)c1ccccc1 (centres undefined)      RXF 393 renal      115% (inactive)
11                        N#Cc1c[nH]n2ccnc12      RXF 393 renal      113% (inactive)
12  CC(C)(C)C1CCC(=NO)CC1 (centres undefined)      RXF 393 renal     90.6% (inactive)
13                      CCCCC/C(C)=N\NC(N)=S      RXF 393 renal     85.7% (inactive)
14                      N=C(N=C(N)N)N1CCOCC1      RXF 393 renal      111% (inactive)
